Where do the numbers come from? From ChEMBL document CHEMBL3112582.

EXPERIMENTAL_SYSTEM: Phosphatidylinositol 4,5-bisphosphate 3-kinase catalytic subunit alpha isoform (Homo sapiens)
Sequence (P42336 whole entry, canonical isoform): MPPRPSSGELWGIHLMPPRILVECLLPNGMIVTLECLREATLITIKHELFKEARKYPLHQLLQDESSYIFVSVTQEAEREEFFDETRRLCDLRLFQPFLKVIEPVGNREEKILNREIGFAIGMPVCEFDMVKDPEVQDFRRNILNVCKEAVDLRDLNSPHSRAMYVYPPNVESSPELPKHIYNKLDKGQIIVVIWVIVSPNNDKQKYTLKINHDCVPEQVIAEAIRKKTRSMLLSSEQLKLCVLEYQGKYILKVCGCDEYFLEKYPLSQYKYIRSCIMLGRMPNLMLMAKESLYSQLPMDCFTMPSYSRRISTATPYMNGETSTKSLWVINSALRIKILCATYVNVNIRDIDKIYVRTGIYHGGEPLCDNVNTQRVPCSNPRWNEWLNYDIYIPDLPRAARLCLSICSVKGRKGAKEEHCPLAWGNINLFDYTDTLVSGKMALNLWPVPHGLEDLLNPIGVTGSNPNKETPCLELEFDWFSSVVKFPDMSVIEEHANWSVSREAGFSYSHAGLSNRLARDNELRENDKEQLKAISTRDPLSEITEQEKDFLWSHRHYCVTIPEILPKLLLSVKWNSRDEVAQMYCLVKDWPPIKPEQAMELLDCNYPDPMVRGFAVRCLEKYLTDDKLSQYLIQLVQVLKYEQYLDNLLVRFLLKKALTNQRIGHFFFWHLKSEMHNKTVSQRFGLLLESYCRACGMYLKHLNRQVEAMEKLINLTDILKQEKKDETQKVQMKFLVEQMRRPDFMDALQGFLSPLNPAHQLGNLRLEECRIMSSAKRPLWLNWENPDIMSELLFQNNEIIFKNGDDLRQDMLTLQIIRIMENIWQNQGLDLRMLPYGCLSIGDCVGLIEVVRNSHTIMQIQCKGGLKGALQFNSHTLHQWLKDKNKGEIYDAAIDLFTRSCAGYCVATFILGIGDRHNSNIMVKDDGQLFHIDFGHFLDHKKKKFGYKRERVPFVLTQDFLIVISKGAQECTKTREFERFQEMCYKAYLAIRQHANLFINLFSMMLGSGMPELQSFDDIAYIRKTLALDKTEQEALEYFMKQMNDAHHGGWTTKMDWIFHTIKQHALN
METHOD_SUMMARY: Inhibition of PI3Kalpha (unknown origin) using PIP2/PS as substrate compound preincubated for 15 mins by luciferase-based luminescence assay
PARAMETER_MEASURED: pIC50
Convention used: pIC50 is expressed as -log10 of the molar concentration.

Consider the molecule shown here: `COc1ncc(-c2cc3c(C)nc(N)cc3n(C3CCOCC3)c2=O)cc1NS(=O)(=O)c1ccc(F)cc1F` What is its recorded pIC50?
8.07

Field request: pIC50 | item: `COc1ncc(-c2cc3c(C)nc(N)cc3n([C@H]3CC[C@H](O)CC3)c2=O)cc1NS(=O)(=O)c1ccc(F)cc1F`
8.00

Recorded pIC50 of `COc1ncc(-c2cc3c(C)nc(N)cc3n(C3CCCC3)c2=O)cc1NS(=O)(=O)c1ccc(C#N)cc1` , please.
7.85

Quick check: pIC50 of `COc1ncc(-c2cc3c(C)nc(N)cc3n(C3CCCC3)c2=O)cc1NS(=O)(=O)c1ccc(F)cc1` ?
7.14

// query pIC50 value for entry `COc1ncc(-c2cc3c(C)nc(N)cc3n(C3CCCC3)c2=O)cc1NS(C)(=O)=O`
7.64

For the molecule `COc1ccc(S(=O)(=O)Nc2cc(-c3cc4c(C)nc(N)cc4n(C4CCCC4)c3=O)cnc2OC)cc1` , what pIC50 is on record?
6.76

GET /values?readout=pIC50&item= `COc1ncc(-c2cc3c(C)nc(N)cc3n(C3CCCC3)c2=O)cc1NS(=O)(=O)c1ccc(C(F)(F)F)cc1`
6.76

Requested read-out: pIC50. Entry: `COc1ccc(-c2cc3c(C)nc(N)cc3n(C3CCCC3)c2=O)cn1`
7.87

Returns the measured pIC50 for the input molecule. Input: `COc1ncc(-c2ccc3nc(N)nc(C)c3c2)cc1NS(=O)(=O)c1ccc(F)cc1F`
8.46

Any idea what its pIC50 is? The molecule is `Cc1nc(N)cc2c1cc(-c1cnc3[nH]ncc3c1)c(=O)n2C1CCCC1`
8.22

# input molecule: `COc1ncc(-c2cnc3nc(N)nc(-c4ccncc4)c3c2)cc1NS(=O)(=O)c1ccc(F)cc1F` ; wanted: its pIC50
7.45

Dear colleague, I am looking for the recorded pIC50 of the following molecule: `COc1ncc(-c2cc3c(C)nc(N)cc3n(C3CCCC3)c2=O)cc1NS(=O)(=O)c1ccc(Cl)s1`
7.51

Recorded pIC50 of `COc1ncc(-c2cc3c(C)nc(N)cc3n(C3CCCC3)c2=O)cc1NS(=O)(=O)c1ccccc1F` , please.
7.43

Can you look up the measured pIC50 of `COc1ncc(-c2cc3c(C)nc(N)cc3n(C3CCCC3)c2=O)cn1` for me?
8.19

Given the entry `Cc1nc(N)cc2c1cc(-c1cnc3c(ccn3C)c1)c(=O)n2C1CCCC1` , report its measured pIC50.
7.82

Requested field: pIC50. Item: `COc1ncc(-c2cc3c(C)nc(N)cc3n(C3CCCC3)c2=O)cc1NS(=O)(=O)c1ccc(F)cc1F`
7.92

Entry `COc1ncc(-c2cc3c(C)nc(N)cc3n(C3CCCC3)c2=O)cc1NS(=O)(=O)c1cccc(F)c1` : reported pIC50 = ?
7.22

# query: pIC50 of entry `COc1ccc(-c2cc3c(C)nc(N)nc3n2[C@H]2CC[C@H](OCCO)CC2)cn1`
5.26
